Hello, the source for this data is patent US11453666B2, in case you need it.

target: human recombinant ATX (Homo sapiens, UniProt Q13822); experiment: Autotaxin (ATX) activity Quanta Red assay; type: biochemical; conditions: read-out: Activity (ATX activity, Quanta Red assay; IC50)
METRIC: IC50 (nM)

1) C[C@H](NC(=O)CCc1nc2cccnc2n1Cc1ccc(F)c(F)c1)c1ccc(N2CCCCC2)cc1
15
2) O=C(CCc1nc2cccnc2n1Cc1ccc(OC(F)(F)F)cc1)Nc1nccs1
214
3) C[C@H](NC(=O)CCc1nc2cccnc2n1Cc1ccc(OC(F)(F)F)cc1)c1ccccn1
5
4) COc1cc(OC(F)(F)F)ccc1CNC(=O)CCc1nc2cccnc2n1Cc1ccc(F)c(F)c1
339
5) O=C(CCc1nc2cccnc2n1Cc1ccccc1OC(F)(F)F)NCc1ccc(OC(F)(F)F)cc1
292
6) Cc1ccccc1CNC(=O)CCc1nc2cccnc2n1Cc1ccccc1
854
7) COc1ccc(Cn2c(CCC(=O)NCc3cccc(C)c3)nc3cccnc32)cc1
650
8) O=C(CCc1nc2cccnc2n1Cc1ccc(OC(F)(F)F)cc1)N[C@@H](CO)Cc1ccccc1
2

====

molecular target: human recombinant ATX (Homo sapiens); test: Autotaxin (ATX) activity Quanta Red assay; type: biochemical; conditions: human recombinant ATX 0.8 μg/mL, 2 hours at room temperature, IC50 determined in duplicate; read-out: Activity (ATX activity, Quanta Red assay; IC50)
pIC50: −log10 of the molar value.
METRIC: pIC50

1) C[C@H](NC(=O)NCc1nc2cccnc2n1Cc1ccc(F)cc1)c1ccc(Cl)cc1
8.00
2) COc1ccc(Cn2c(CCC(=O)N[C@@H](C)c3ccc(Cl)cc3)nc3cccnc32)cc1
8.52
3) C[C@H](NC(=O)CSc1nc2cccnc2n1Cc1ccc(OC(F)(F)F)cc1)c1ccc(F)cc1
8.70
4) C[C@H](NC(=O)COc1nc2cccnc2n1Cc1ccc(F)cc1)c1ccc(F)cc1
7.41
5) O=C(CCc1nc2cccnc2n1Cc1ccccc1)NCc1cccs1
6.07
6) C[C@H](NC(=O)CCc1nc2cccnc2n1Cc1ccccc1)c1ccccc1
7.17
7) C[C@H](NC(=O)CCc1nc2cccnc2n1Cc1ccc(C(F)(F)F)cc1)c1ccc(Cl)cc1
8.70
8) C[C@H](NC(=O)NCc1nc2cccnc2n1Cc1ccc(F)cc1)c1ccc(F)cc1
7.10
9) C[C@@H](NC(=O)CCc1nc2cccnc2n1Cc1ccccc1)c1ccccc1
5.58
10) C[C@H](NC(=O)CS(=O)(=O)c1nc2cccnc2n1Cc1ccc(OC(F)(F)F)cc1)c1ccc(F)cc1
5.54
11) C[C@H](OC(=O)NCc1nc2cccnc2n1Cc1ccc(F)cc1)c1ccc(F)cc1
6.02
12) C[C@H](NC(=O)CCc1nc2ccncc2n1Cc1ccc(OC(F)(F)F)cc1)c1ccc(F)cc1
8.10
13) C[C@H](NC(=O)COc1nc2cccnc2n1Cc1ccc(OC(F)(F)F)cc1)c1ccc(Cl)cc1
8.30
14) C[C@H](NC(=O)C[S+]([O-])c1nc2cccnc2n1Cc1ccc(OC(F)(F)F)cc1)c1ccc(F)cc1 (single isomer, unassigned) [Example 148]
8.00
15) C[C@H](NC(=O)CCc1nc2ccncc2n1Cc1ccc(OC(F)(F)F)cc1)c1ccc(Cl)cc1
8.52
16) C[C@H](NC(=O)CCc1nc2ccncc2n1Cc1ccc(F)cc1)c1ccc(F)cc1
7.28
17) C[C@H](NC(=O)C[S+]([O-])c1nc2cccnc2n1Cc1ccc(OC(F)(F)F)cc1)c1ccc(F)cc1 (single isomer, unassigned) [Example 149]
6.75
